- Tested on: HeLaS3 cells
- Procedure details: Growth inhibition against HeLaS3 cells
- Assay type: cell-based
- Applied conditions: Homo sapiens, HeLa S3, 1 h; HeLaS3 cells; one hour with compound, 37° C.; Neutral Red, absorbance at 550 nm; read-out: IC50
Quantity name: IC50

# Molecule, Quantity name, Val
rows = [
    ("Cc1cc2c(O)c3c(cc2c2oc(C4(C)OC4C4CO4)cc(=O)c12)C(=O)C1OC1(C1CC(=O)C(O)C(C)O1)C3O (stereo not shown) [DC114-C, reference compound]", "IC50", "21 nM"),
]

###

- System: HeLaS3 cells
- Procedure details: Growth inhibition against HeLaS3 cells
- Type: cell-based
- Applied conditions: Homo sapiens, HeLa S3, 1 h
Quantity name: IC50

# Molecule, Quantity name, Val
records = [
    ("Cc1cc2c(O)c3c(cc2c2oc(C4(C)OC4C4CO4)cc(=O)c12)C(=O)C1OC1(C1CC(=O)C(O)C(C)O1)C3=O (stereo not shown)", "IC50", "12 nM"),
]
